System: M19-MEL
assay details: NCI tumour cell line growth inhibition, 48 h
Calls of active or inactive are those of the source. No stated cut-off is given here; in the data, active = GI50 up to about 1.1 µM and inactive = higher.
value type: GI50

Recorded result, CC1CCCCc2nc3c(c(=O)n21)CCCC3 (stereo unspecified) , GI50: > 100 µM (inactive)

Recorded result, CC1(C)CC23C4COC(=O)C2CCC1C3CC4=O (stereo unspecified) , GI50: 11.9 µM (inactive)

Recorded result, O=Cc1c(Br)[nH]c2ccccc12 , GI50: > 79.6 µM (inactive)

Recorded result, C=C/C=C/NC(=O)OCc1ccccc1 , GI50: > 100 µM (inactive)

Recorded result, N=S(c1ccccc1[N+](=O)[O-])c1ccccc1[N+](=O)[O-] , GI50: 2.43 µM (inactive)

Parameters: items (list). Returns: GI50 for each item.
1. Cn1c(=O)c2c(ncn2CCCCn2ccnc2[N+](=O)[O-])n(C)c1=O
2. Nc1ccc(C(=O)O)c2[nH]c3ccccc3c(=O)c12

OUT:
["> 100 µM (inactive)", "> 100 µM (inactive)"]

Parameters: items (list). Returns: GI50 for each item.
1. CCOC(=O)/C(=C/c1cccc(OC)c1)N(CC)CC
2. Cc1ccc2c(c1)C1(OC(=O)c3ccccc31)c1ccc(F)cc1O2 (stereo unspecified)
3. COC(=O)C(Cc1nc2ccccc2nc1C)/C(=N\NC(N)=O)C(=O)Nc1cccc([N+](=O)[O-])c1 (stereo unspecified)
4. O=C1c2ccccc2C(=O)N1C/C=N/NS(=O)(=O)c1ccc(F)cc1

OUT:
1: > 100 µM (inactive); 2: 57 µM (inactive); 3: 37.9 µM (inactive); 4: > 100 µM (inactive)

---

Test system: SR
assay details: NCI tumour cell line growth inhibition, 48 h
Activity calls are given as the source filed them. Cut-off read from the data, not from the text of the source: active = GI50 up to about 1.1 µM and inactive = higher.
Response enum: active, inactive

These solved cases illustrate the format of a correct answer.
IN: What outcome does the record of this test show for O=C(Cc1csc2[n+]1C(=O)/C(=C/c1ccc(Cl)cc1)S2)Nc1ccccc1 ?
OUT: inactive

IN: What outcome does the record of this test show for Cc1cccc2c(N)c3cccc(C(=O)NCC[N+](C)(C)Cc4ccccc4[N+](=O)[O-])c3nc12 ?
OUT: active

IN: What outcome does the record of this test show for COc1ccc(C(=O)c2[nH]c(Nc3ccc(Cl)cc3)c(C(=S)Nc3ccccc3)c2N)cc1 ?
OUT: inactive

IN: What outcome does the record of this test show for Sc1nnc(-c2cccnc2)[nH]1 ?
OUT: inactive

IN: What outcome does the record of this test show for Cc1cccc2c1Sc1ccccc1C2NC(=O)CN(C)C (centres undefined) ?
OUT: inactive

IN: What outcome does the record of this test show for CC(=O)OCC1OC(n2c3c(cc(C#N)c2=S)CCCCCC3)C(OC(C)=O)C(OC(C)=O)C1OC(C)=O (centres undefined) ?
OUT: inactive

IN: What outcome does the record of this test show for N#Cc1nc(/C=C/c2cccs2)oc1N ?
OUT: inactive

IN: What outcome does the record of this test show for CC(=O)NC(CCCOC(C)=O)C(=O)NC(CCCOC(C)=O)C(=O)NC(CCCOC(C)=O)C(=O)NC(Cc1ccc([N+](=O)[O-])cc1)C(=O)NCC(=O)OCc1ccccc1 (centres undefined) ?
OUT: inactive

Next:
IN: What outcome does the record of this test show for Cc1ccc(S(=O)(=O)N/N=C2/C3CCC(C3)C2c2ccccc2)cc1 (centres undefined) ?
OUT: inactive

IN: What outcome does the record of this test show for O=C1c2ccccc2C(=O)N1C/C=N/NS(=O)(=O)c1ccc(F)cc1 ?
OUT: inactive

IN: What outcome does the record of this test show for O=C1NCc2ccccc2S(=O)(=O)n2cccc21 ?
OUT: inactive

IN: What outcome does the record of this test show for C1COCCN1.S=C(S)N1CCOCC1 ?
OUT: active

IN: What outcome does the record of this test show for CC1CC[C@@]2(OC1)OC1C[C@H]3[C@@H]4CC[C@H]5CC(OC6OC(CO)C(OC7OC(CO)C(O)C(O)C7OC7OC(CO)C(O)C(O)C7O)C(O)C6O)CCC5(C)[C@H]4CCC3(C)C1[C@@H]2C (some centres undefined) ?
OUT: inactive

IN: What outcome does the record of this test show for CCCCN=C(OC1C=CCCC1)SC (centres undefined) ?
OUT: inactive

IN: What outcome does the record of this test show for O=C1c2ccccc2N2OC3(N4CCCC4)CCCC3C12c1ccccc1 (centres undefined) ?
OUT: inactive
